# METHOD DESCRIPTION: HILIC, Waters Atlantis Premier BEH Z-HILIC, 100 × 2.1 mm, 1.7 µm, 40 °C, 0.15 mL/min, estimated dead time 1.5 min; A: water + 20 mM ammonium carbonate + 5 µM medronic acid; B: 10% water + 90% acetonitrile + 2 mM ammonium carbonate + 0.5 µM medronic acid; gradient (min/%B) 0/95 18/55 18.1/20 21.5/20 22/95 23.5/95 25.5/95
# MEASUREMENT PARAMETERS: stereoisomer not certain
LC retention time strictly less than 10 min = fulfilled. Otherwise not fulfilled.

1) Nc1ncnc2c1ncn2C1OC(COP(=O)(O)OP(=O)(O)OP(=O)(O)O)C(O)C1O (stereo not drawn) [ATP]; not fulfilled
2) CC(C)CC(N)C(=O)O (stereo not drawn) [Leucine]; fulfilled
3) O=C(O)CCC(=O)O [Succinic Acid]; fulfilled
4) O=C(O)CCC(=O)C(=O)O [2-Oxoglutaric acid]; fulfilled
5) CCC(=O)OC(CC(=O)[O-])C[N+](C)(C)C (stereo not drawn) [carnitine-C3]; fulfilled
6) CC(O)C(=O)O (stereo not drawn) [Lactic Acid]; fulfilled
7) CCC(C)C(N)C(=O)O (stereo not drawn) [Isoleucine]; fulfilled
8) C=C(OP(=O)(O)O)C(=O)O [PEP]; not fulfilled
9) O=P(O)(O)OCC1OC(O)C(O)C(O)C1O (stereo not drawn) [Glucose-6-phosphate]; not fulfilled
10) NC(=O)CCC(N)C(=O)O (stereo not drawn) [Glutamine]; not fulfilled
11) NC(=O)C1=CN(C2OC(COP(=O)(O)OP(=O)(O)OCC3OC(n4cnc5c(N)ncnc54)C(O)C3O)C(O)C2O)C=CC1 (stereo not drawn) [NADH]; fulfilled
12) NC(=O)c1ccc[n+](C2OC(COP(=O)(O)OP(=O)(O)OCC3OC(n4cnc5c(N)ncnc54)C(OP(=O)(O)O)C3O)C(O)C2O)c1 (stereo not drawn) [NADP]; not fulfilled
13) NC(CCC(=O)O)C(=O)O (stereo not drawn) [Glutamic acid]; fulfilled
14) Nc1ncnc2c1ncn2C1OC(COP(=O)(O)OP(=O)(O)O)C(O)C1O (stereo not drawn) [ADP]; not fulfilled
15) O=C1CC(C(=O)O)NC(=O)N1 (stereo not drawn) [dihydroorotic acid]; fulfilled
16) Nc1nc2c(ncn2C2OC(COP(=O)(O)OP(=O)(O)OP(=O)(O)O)C(O)C2O)c(=O)[nH]1 (stereo not drawn) [GTP]; not fulfilled
17) O=C(O)CCC(O)C(=O)O (stereo not drawn) [2-hydroxy glutaric acid]; fulfilled
18) Nc1ncnc2c1ncn2C1OC(CO)C(O)C1O (stereo not drawn) [Adenosine]; fulfilled
19) O=C(O)CC(O)(CC(=O)O)C(=O)O [Citric acid]; not fulfilled
20) OCC1OC(O)C(O)C(O)C1O (stereo not drawn) [Hexose]; fulfilled
21) NC(N)=NCCCC(N)C(=O)O (stereo not drawn) [Arginine]; not fulfilled
22) CC(C)(COP(=O)(O)OP(=O)(O)OCC1OC(n2cnc3c(N)ncnc32)C(O)C1OP(=O)(O)O)C(O)C(=O)NCCC(=O)NCCS (stereo not drawn) [CoenzymeA]; not fulfilled
23) O=C(CO)C(O)C(O)C(O)COP(=O)(O)O (stereo not drawn) [Fructose 6-phosphate]; not fulfilled

// data source = the RepoRT retention time repository
